- Tested on: LXRa:RXRa (NR concentration 270 nM, RXRa partner concentration 90 nM)
- assay_protocol: PBM binding z-score (relative to random genomic background probes); higher = stronger binding; sequences stand for … in GC…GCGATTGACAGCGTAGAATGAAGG
Could you label it true if measured PBM binding z-score is 0.7 or higher, and false otherwise?

Prompt: Check this sequence for PBM binding z-score at or above 0.7: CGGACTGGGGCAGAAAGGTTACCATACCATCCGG
Completion: true

Prompt: hey, is PBM binding z-score for this one >= 0.7? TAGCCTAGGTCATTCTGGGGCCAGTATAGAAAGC
Completion: true

Prompt: Determine whether measured PBM binding z-score meets or exceeds 0.7 for GCGACTGGTGCAAAGCAGGTTACCATAAGGTTGG
Completion: false

Prompt: hey, is PBM binding z-score for this one >= 0.7? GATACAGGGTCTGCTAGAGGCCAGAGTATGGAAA
Completion: false

Prompt: Can AGTCAAAGTCCACTAGGTAACGTAAGATTCAGCT be said to have PBM binding z-score at or above 0.7?
Completion: false

Prompt: Hi team, for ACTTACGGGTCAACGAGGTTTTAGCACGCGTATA , is the recorded PBM binding z-score at or above 0.7?
Completion: true

Prompt: Please check the record TAGCCTAAGTCATTCAGGGGCCAGTATAGAAAGC and state if its PBM binding z-score is at or above 0.7.
Completion: false
